Where do these numbers come from? They come from PubChem BioAssay.

system-tested: L-lactate dehydrogenase (Plasmodium falciparum (isolate CDC / Honduras)) (UniProt Q27743)
Sequence (Q27743 whole entry, looked up): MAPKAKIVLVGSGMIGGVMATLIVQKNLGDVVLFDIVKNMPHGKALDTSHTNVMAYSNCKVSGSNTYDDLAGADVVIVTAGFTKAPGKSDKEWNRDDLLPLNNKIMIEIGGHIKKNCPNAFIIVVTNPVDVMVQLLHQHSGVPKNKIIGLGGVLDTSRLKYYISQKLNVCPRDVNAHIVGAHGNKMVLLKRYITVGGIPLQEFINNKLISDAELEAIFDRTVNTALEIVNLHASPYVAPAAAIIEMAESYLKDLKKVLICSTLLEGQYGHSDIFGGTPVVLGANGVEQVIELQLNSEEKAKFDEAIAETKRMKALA
protocol: PfLDH activity inhibition – cell lysate, 3D7 strain, counter-screen for P. falciparum growth inhibition project (AID 2304);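 note: 0% = vehicle and 100% = reference inhibitor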
setup-conditions: P. falciparum 3D7 crude extract, LDH APAD/NBT absorbance; at 2 µM; stronger effect = higher value
endpoint-label: inhibition (%)
Dear colleague, please return just the value in %, with no unit written.

Check out these entries, answers already filled in.
compound: CC1SC(=S)NC1C(=O)O (centres undefined)
value-unit: %
endpoint-value: 0

compound: CCNC(=O)N1CCc2ccc(Oc3nc(NCc4ccccc4OC)ncc3C)cc2CC1
value-unit: %
endpoint-value: -9

compound: O=c1cc(NCCCCNCc2cccc(Br)c2)[nH]c2ccccc12
value-unit: %
endpoint-value: 0

Exam item: What inhibition appears in the records for this compound with L-lactate dehydrogenase (Plasmodium falciparum (isolate CDC / Honduras)) (UniProt Q27743)? CC(C)CN(c1nc(C(=O)NNC(=O)[C@H](CC2CC2)NC(=O)c2cc3cc(OCCN(C)C)ccc3o2)cs1)C1CC1
Marked response: -4

---

protocol: antimalarial activity against Dd2 strain (AID 2302);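 note: 0% = DMSO untreated growth and 100% = chloroquine plus artemisinin killed control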
setup-conditions: P. falciparum Dd2 in RBCs, LDH growth readout, 72 h; at 2 µM
The source made the active and inactive calls.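 How the source made its calls: active means growth inhibition above 50% at the single 2 µM test dose, taken to imply half-maximal potency below 2 µM; inactive means the rest.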
Parameter call: string, one of active, inactive

Worked cases, answers included:
molecule: CCCOc1ccccc1-c1nc2[nH]c3c(c2c(=O)[nH]1)CCN(C)C3
classification: active
//
molecule: O=C(N[C@@H](Cc1ccccc1)[C@H](O)CNC1CCc2ccccc2C1)c1cc(C2CCCC2)cc(N2CCCC2=O)c1 (some centres undefined)
classification: active
//
molecule: Cc1ccc(S(=O)(=O)NC2CCN(c3ccnc4cc(Cl)ccc34)C2)cc1 (centres undefined)
classification: active
//
molecule: O=C(Cc1cccc(Cl)c1)N1CCc2cc3nccc(N4CCN5CCC[C@H]5C4)c3cc21
classification: inactive
//
molecule: O=C(NC(c1ccccc1)c1ccc2cccnc2c1O)c1ccccc1 (centres undefined)
classification: active

Exam item: Kindly provide the recorded test outcome for the following molecule: CN1C(=CC(=O)NC(=O)c2ccccc2)C(C)(C)c2ccccc21
Marked response: active

Exam item: Kindly provide the recorded test outcome for the following molecule: NC(=O)c1cccc(C(=O)Nc2cccc(-c3cccc(-c4nc5ccc(F)cc5[nH]4)c3)c2)c1
Marked response: active

Exam item: Kindly provide the recorded test outcome for the following molecule: O=C(c1cc(C(=O)Nc2ccc(F)cc2)c(=O)n(-c2ccc(F)cc2)c1)c1cc(Cl)ccc1O
Marked response: active

Exam item: Kindly provide the recorded test outcome for the following molecule: O=C(N[C@@H](CC1CCCCC1)C(=O)NCCN1CCCCC1)c1ccc(O)c(-c2ccc(Cl)c(Cl)c2)c1
Marked response: active

---

system-tested: Plasmodium falciparum protein kinase 6 (PK6, PF3D7_1337100) (UniProt Q8IDW1)
protocol: PfPK6 kinase inhibitors, biochemical, TCAMS library (AID 1159586)
setup-conditions: recombinant PfPK6, Kinase-Glo ATP depletion luminescence
Potency and affinity values are given separately. Active and inactive are the calls of the source. How the calls were made is not given here.
endpoint-label: outcome

Check out these entries, answers already filled in.
compound: O=C(NC1CCCCCC1)[C@@H]1CCCN1C(=O)c1ccc(O)c(-c2ccc(Cl)c(Cl)c2)c1
endpoint-label: outcome
endpoint-value: inactive

compound: O=C(c1ccc(Cl)c(Cl)c1)N1CCc2c([nH]c3ccccc23)C1CN1CCCC1 (stereo not given)
endpoint-label: outcome
endpoint-value: inactive

compound: Cc1cccc2[nH]c(-c3ccc(-c4cccc(CN5CCCC5CN)c4)cc3)nc12 (stereo not given)
endpoint-label: outcome
endpoint-value: inactive

compound: O=C(Nc1cccc(OCCN2CCCC2)c1)Nc1ccc(Cl)c(Cl)c1
endpoint-label: outcome
endpoint-value: inactive

compound: CC(C)NCc1cccc(-c2ccc(-c3nc4ccc(C(F)(F)F)cc4[nH]3)cc2)c1
endpoint-label: outcome
endpoint-value: inactive

compound: O=C(Nc1ccc2c(c1)CCN(C1CCC1)CC2)c1cn(-c2ccccc2)nc1-c1ccccc1
endpoint-label: outcome
endpoint-value: inactive

compound: COc1cc2nc(N3CCC(CNC(=O)c4ccc(-c5ccccc5)cc4)CC3)nc(N)c2cc1OC
endpoint-label: outcome
endpoint-value: inactive

compound: Cc1cc(NC(=O)Nc2ccc(Oc3ccccc3)cc2)c2ccccc2n1
endpoint-label: outcome
endpoint-value: inactive

Pending compound:
Exam item: Query: outcome; subject: O=C(/C=C/c1ccc(Cl)c(Cl)c1)N1CCC(NCc2c[nH]c3ccccc23)CC1
Marked response: inactive
